# System: tumor cells (NCI-1975, HCC827, A549, SHI-1, THP-1, NB-4)
# measurement_description: Growth inhibition of tumor cells (summary over cell lines)
# Format: cell-based
# test_settings: range over lung cancer and leukemia cell lines
quantity: IC50

Prompt: Consider the compound CC(C)Oc1ccc(NC(=O)c2cc3scnc3[nH]2)cc1 and give its recorded IC50.
Response: 8 to 280 nM

###

# Tested on: human embryo lung cell line WI-38
# measurement_description: Growth inhibitory activity, WI-38
# Format: cell-based
# test_settings: growth inhibition, normal cells
quantity: IC50 (µM)
Give bare numbers, in µM.

Prompt: Determine its reported IC50: CC(C)Oc1ccc(NC(=O)c2cc3scnc3[nH]2)cc1
Response: 5.62

###

# Test system: human breast cancer cells MCF-7
# measurement_description: MTS cell growth inhibition, MCF-7
# Assay type: cell-based
# test_settings: MCF7, compound concentration 10 μM, 48 h, read-out: Inhibition rate against MCF-7 at 10 μM (%)
quantity: inhibition at 10 µM (%)
Give bare numbers, in %.

* O=C(NCc1ccccc1-c1ccsc1)c1cc2scnc2[nH]1 [Compound I-24] | 31.5
* CCN(CC)c1ccc(NC(=O)c2cc3scnc3[nH]2)cc1 [Compound I-15] | 23.8
* O=C(NCc1ccccc1-c1cc2ccccc2o1)c1cc2scnc2[nH]1 [Compound I-28] | 21
* O=C(NCc1ccccc1-c1ccco1)c1cc2scnc2[nH]1 [Compound I-26] | 3.1

Your task in this section: give inhibition at 10 µM for each listed record.
1. O=C(NCc1ccccc1-c1ccncc1)c1cc2scnc2[nH]1 [Compound I-22]
2. O=C(NCc1ccccc1-c1cccnc1)c1cc2scnc2[nH]1 [Compound I-23]
3. CSc1ccc(OCc2cccc(NC(=O)c3cc4scnc4[nH]3)c2)cc1 [Compound I-31]

Response:
[15.1, 27, 13.9]

###

# Tested on: leukemia cell line SHI-1
# measurement_description: Growth inhibitory activity, SHI-1
# Format: cell-based
# test_settings: growth inhibition; read-out: Leukemia cells IC50 SHI-1
quantity: IC50 (nM)
Give bare numbers, in nM.

Prompt: Report IC50, nothing else, for this compound: CC(C)Oc1ccc(NC(=O)c2cc3scnc3[nH]2)cc1 [Compound I-2]
Response: 221

###

# Tested on: Human promyelocytic leukemia cells HL-60
# measurement_description: MTS cell growth inhibition, HL-60
# Type: cell-based
# test_settings: Homo sapiens, HL-60; growth inhibition; 48 h; MTS
quantity: pIC50
Numbers only, as −log10 of the molar value.

Completed entries (count: 10):
• O=C(NCc1ccccc1-c1ccco1)c1cc2scnc2[nH]1 = 5.49
• O=C(NCc1ccccc1-c1cc2ccccc2o1)c1cc2scnc2[nH]1 = 8.30
• CN(C)c1ccc(NC(=O)c2cc3scnc3[nH]2)cc1 = 5.89
• O=C(Nc1ccc(OC(F)(F)F)cc1)c1cc2scnc2[nH]1 = 6.66
• O=C(NCc1ccccc1-c1cccnc1)c1cc2scnc2[nH]1 = 6.32
• O=C(Nc1ccc(C(F)(F)F)cc1)c1cc2scnc2[nH]1 = 6.19
• O=C(NCc1ccccc1-c1ccsc1)c1cc2scnc2[nH]1 = 5.64
• Cc1cn(-c2cc(NC(=O)c3cc4scnc4[nH]3)cc(C(F)(F)F)c2)cn1 = 5.15
• CSc1ccc(OCc2cccc(NC(=O)c3cc4scnc4[nH]3)c2)cc1 = 6.31
• CCN(CC)c1ccc(NC(=O)c2cc3scnc3[nH]2)cc1 = 5.57

Below are 5 molecules. Give each one its pIC50.
1. COC(=O)c1ccc(NC(=O)c2cc3scnc3[nH]2)cc1
2. O=C(NCc1ccccc1-c1ccoc1)c1cc2scnc2[nH]1
3. O=C(NCc1ccccc1-c1ccncc1)c1cc2scnc2[nH]1
4. COc1ccc(NC(=O)c2cc3scnc3[nH]2)cc1
5. CS(=O)(=O)c1ccc(OCc2cccc(NC(=O)c3cc4scnc4[nH]3)c2)cc1

Response:
[5.75, 10.92, 6.17, 6.23, 5.73]
